System: Vero E6 infected with SARS-CoV-2
assay.details: morphology score (similarity to uninfected cells); higher = more like uninfected cells
condition.label: 24 h
Outcome: rule met for morphology score of at least 0.1; rule not met for anything lower.

Query: Quick check: does COc1ccc(-c2ccc3ncc4c(c3c2)n(-c2ccc(N3CCNCC3)c(C(F)(F)F)c2)c(=O)n4C)cn1 (0.833333 µM) have morphology score greater than or equal to 0.1?
Result: rule met

Query: API: above_or_equal(metric=morphology score, cutoff=0.1) for item CCCCCCCCCCC(C)(C)C(=O)Nc1c(OC)cc(OC)cc1OC (10 µM)
Result: rule not met

Query: # bool: morphology score of CCN(CCO)CCCOc1ccc2c(Nc3cc(CC(=O)Nc4cccc(F)c4)[nH]n3)ncnc2c1 [barasertib-HQPA] (10 µM) >= 0.1
Result: rule not met

Query: Tell me whether morphology score is at least 0.1 here: CN(CC[C@@H](Oc1ccc(-c2ccccc2)cc1)c1ccc(F)cc1)CC(=O)O (10 µM)
Result: rule not met

Query: Test whether the molecule CC1(C)OC(=O)C(OCC2CC2)=C1c1ccc(S(C)(=O)=O)cc1 [firocoxib] (10 µM) records morphology score of 0.1 or higher.
Result: rule met

Query: Given COc1ccc(-c2csc(NC(=O)[C@H]3CCCCN3S(=O)(=O)c3ccc(C)cc3)n2)cc1 (10 µM) , state whether its morphology score is at least 0.1.
Result: rule met

Query: Reported morphology score reaches at least 0.1 for CC(=O)N1CCN(CCOc2ccc(C3CCN(C4=Nn5c(nnc5C(F)(F)F)CC4)CC3)cc2)CC1 (0.833333 µM) ?
Result: rule not met

Query: Answer whether morphology score of CN(C)CCCN1c2ccccc2Sc2ccc(Cl)cc21 [chlorpromazine] (0.833333 µM) is greater than or equal to 0.1.
Result: rule not met

Query: Answer whether morphology score of CC1(C)CCC(C)(C)c2cc(C3(c4ccc(C(=O)O)cc4)OCCO3)ccc21 (10 µM) is greater than or equal to 0.1.
Result: rule not met

Query: Evaluate Nc1nc(/C(=C/CC(=O)O)C(=O)N[C@@H]2C(=O)N3C(C(=O)O)=CCS[C@H]23)cs1 [ceftibuten] (10 µM) : morphology score at minimum 0.1?
Result: rule met

Query: Can Cc1cnc(Nc2ccc(N3CCN(C)CC3)cc2)nc1Nc1cccc(S(=O)(=O)NC(C)(C)C)c1 (0.833333 µM) be said to have morphology score at or above 0.1?
Result: rule met

Query: Textbook exercise: given the entry CC(=O)Nc1cccc(Nc2ncnc(N3CCC(OCc4ccc(OC(F)(F)F)cc4)CC3)n2)c1C (10 µM) , state whether its morphology score is greater than or equal to 0.1.
Result: rule met

Query: Does morphology score meet or surpass 0.1 for CN(CCOc1ccc(C[C@H](Nc2ccccc2C(=O)c2ccccc2)C(=O)O)cc1)c1ccccn1 (10 µM) ?
Result: rule met

Query: Given the entry N#C[C@@H]1C[C@@H]2C[C@@H]2N1C(=O)[C@@H](N)C12CC3CC(CC(O)(C3)C1)C2 (10 µM) , answer whether its morphology score meets or surpasses 0.1.
Result: rule not met

Query: Please check the record O=C1/C(=C/c2ccccc2)C[C@@]2(O)[C@H]3Cc4ccc(O)c5c4[C@@]2(CCN3CC2CC2)[C@H]1O5 (0.833333 µM) and state if its morphology score is at or above 0.1.
Result: rule met

Query: For this molecule, is measured morphology score 0.1 or higher? CCCCCN(C)CCC(O)(P(=O)(O)O)P(=O)(O)O [ibandronate] (10 µM)
Result: rule not met

Query: Assess whether reported morphology score for COC(=O)CC[C@@H]1N=C(c2ccccn2)c2cc(Br)ccc2-n2c(C)cnc21 [remimazolam] (10 µM) sits at 0.1 or higher.
Result: rule met

Query: Hello, I need to know if CCn1cc(C(=O)O)c(=O)c2cc(F)c(N3CCN(C)CC3)cc21 [pefloxacin] (10 µM) has measured morphology score not below 0.1. Thanks!
Result: rule met

Query: For this molecule, is measured morphology score 0.1 or higher? CC(=O)O[C@H]1CC[C@@]2(C)C(=CC[C@@H]3[C@@H]2CC[C@]2(C)C(=O)CC[C@@H]32)C1 [prasterone-acetate] (10 µM)
Result: rule not met

Query: Dear colleague, could you confirm whether Oc1ccnc2cc(Cl)ccc12 [chloroxoquinoline] (10 µM) has morphology score at or above 0.1?
Result: rule met

Query: Confirm if morphology score reported for the molecule Clc1ccc(C(OCCN2CCCCC2)c2ccccc2)cc1 (configuration not stated) [cloperastine] (10 µM) is 0.1 or above.
Result: rule met

Query: # check: morphology score of Cc1ccc(F)cc1C(=O)Nc1ccc(C(=O)N2Cc3cccn3Cc3ccccc32)c(Cl)c1 [lixivaptan] (10 µM) is greater than or equal to 0.1
Result: rule not met

Query: Does O=C(O)c1ccccc1C(=O)Nc1ccc(-c2ccccc2)cc1 [kartogenin] (10 µM) have a reported morphology score of at least 0.1?
Result: rule met

Query: Hello, I need to know if CCCCc1ncc(/C=C(\Cc2cccs2)C(=O)O)n1Cc1ccc(C(=O)O)cc1 [eprosartan] (10 µM) has measured morphology score not below 0.1. Thanks!
Result: rule not met

Query: Given CN(C)[C@@H]1C(O)=C(C(N)=O)C(=O)[C@@]2(O)C(O)=C3C(=O)c4c(O)ccc(Cl)c4[C@@H](O)[C@H]3C[C@@H]12 [demeclocycline] (10 µM) , state whether its morphology score is at least 0.1.
Result: rule not met

Query: Check the entry CN[C@@H](C)CCC=C(C)C [isometheptene-mucate] (10 µM) : does morphology score equal or exceed 0.1?
Result: rule not met

Query: Decide: morphology score of COc1ccc2c(c1)C=C1Cn3c-2c(C2CCCCC2)c2ccc(cc23)C(=O)NS(=O)(=O)N(C)CCOCCN(C)C1=O (10 µM) >= 0.1?
Result: rule met

Query: Reported morphology score reaches at least 0.1 for CCO[C@@H](Cc1ccc(OCCn2c(C)ccc2-c2ccc(SC)cc2)cc1)C(=O)O [saroglitazar] (10 µM) ?
Result: rule met

Query: Tell me whether morphology score is at least 0.1 here: CCc1ccc(CCOc2ccc(CC3SC(=O)NC3=O)cc2)nc1 (configuration not stated) [pioglitazone] (10 µM)
Result: rule not met

Query: Check the entry CNC(=O)c1ccc(-c2cnc3ncc(Cc4ccc5ncccc5c4)n3n2)cc1F (10 µM) : does morphology score equal or exceed 0.1?
Result: rule not met

Query: Could you verify whether the entry C#C[C@]1(O)CC[C@H]2[C@@H]3CCC4=C(CCC(=O)C4)[C@H]3CC[C@@]21C [noretynodrel] (10 µM) shows morphology score of no less than 0.1?
Result: rule not met
